measurement-target: recombinant human PARP (PARP1) (Homo sapiens, UniProt P09874)
Construct: Full length human PARP (PARP1) is assembled from PCR fragments; His6 tag with TEV site, from the pFastBac-HTb vector (own knowledge of the vector); made in house; host or cells: insect cells, baculovirus (Bac-to-Bac, Gibco-BRL)
Sequence (P09874 whole entry, the tested form may be a part): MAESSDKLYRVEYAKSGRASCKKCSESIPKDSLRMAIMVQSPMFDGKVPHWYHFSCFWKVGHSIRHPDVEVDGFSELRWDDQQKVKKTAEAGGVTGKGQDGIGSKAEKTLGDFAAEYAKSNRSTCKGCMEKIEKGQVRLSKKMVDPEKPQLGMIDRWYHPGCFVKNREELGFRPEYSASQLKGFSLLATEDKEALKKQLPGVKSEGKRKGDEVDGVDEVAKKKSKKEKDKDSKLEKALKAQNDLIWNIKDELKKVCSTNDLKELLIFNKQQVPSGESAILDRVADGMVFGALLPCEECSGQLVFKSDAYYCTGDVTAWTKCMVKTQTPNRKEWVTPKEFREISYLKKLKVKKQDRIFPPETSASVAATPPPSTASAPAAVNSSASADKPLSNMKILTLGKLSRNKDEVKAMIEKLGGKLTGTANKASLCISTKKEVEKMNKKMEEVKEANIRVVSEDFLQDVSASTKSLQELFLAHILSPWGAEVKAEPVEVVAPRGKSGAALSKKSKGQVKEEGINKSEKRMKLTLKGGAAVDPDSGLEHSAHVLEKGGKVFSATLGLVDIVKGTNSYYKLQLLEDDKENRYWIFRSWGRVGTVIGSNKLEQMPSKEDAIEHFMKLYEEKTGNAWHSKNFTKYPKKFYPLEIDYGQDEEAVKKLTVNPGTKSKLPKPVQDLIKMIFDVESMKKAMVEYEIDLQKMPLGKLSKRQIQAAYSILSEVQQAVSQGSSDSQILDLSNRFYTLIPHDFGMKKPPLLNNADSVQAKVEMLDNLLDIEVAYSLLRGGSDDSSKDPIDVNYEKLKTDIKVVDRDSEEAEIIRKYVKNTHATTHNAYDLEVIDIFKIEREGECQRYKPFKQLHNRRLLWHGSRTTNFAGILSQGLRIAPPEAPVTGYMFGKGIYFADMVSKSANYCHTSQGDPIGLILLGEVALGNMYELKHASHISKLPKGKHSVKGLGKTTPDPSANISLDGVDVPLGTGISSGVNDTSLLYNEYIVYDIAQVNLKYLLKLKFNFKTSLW
experimental-protocol: PARP enzyme assay, Method A (radioactivity or 'ELISA' enzyme assay with partially purified enzyme)
Assay type: biochemical
run-conditions: recombinant human PARP preparation, radioactive or ELISA enzyme assay
Structures can show the parent of a compound that is named as a salt.
Would you mind classing the entries by IC50? Ranges: b0 = under 0.3 µM, b1 = from 0.3 µM up to 0.6 µM, b2 = 0.6 µM and over

[Q] Lab log: CCc1cc(-c2ccc(CN3CCC(F)C3)s2)c(C)[nH]c1=O (stereo not shown) [Example 173, hydrochloride] — assign IC50 category
[A] b0

[Q] What do you get for CCc1cc(-c2ccc(S(=O)(=O)NCCN3CCCC3)s2)c(C)[nH]c1=O [Example 95, hydrochloride] ?
[A] b0

[Q] What do you get for CCc1cc(-c2ccc(S(=O)(=O)N3CCCC(Cn4ccnc4)C3)s2)c(C)[nH]c1=O (stereo not shown) [Example 70, hydrochloride] ?
[A] b0

[Q] What do you get for CCc1cc(-c2ccc(S(=O)(=O)NC3CCN(Cc4ccccc4)CC3)o2)c(C)[nH]c1=O [Example 46, hydrochloride] ?
[A] b1

[Q] What do you get for CCc1cc(-c2ccc(CNCc3ccccc3F)s2)c(C)[nH]c1=O [Example 192, hydrochloride] ?
[A] b0

[Q] What do you get for CCc1cc(-c2ccc(CNCCC3=CCCCC3)s2)c(C)[nH]c1=O [Example 144, hydrochloride] ?
[A] b2

[Q] What do you get for CCc1cc(-c2ccc(CNCCN3CCCC3)s2)c(C)[nH]c1=O [Example 154, dihydrochloride] ?
[A] b1

[Q] What do you get for CCc1cc(-c2ccc(CNCc3cccnc3)s2)c(C)[nH]c1=O [Example 162, dihydrochloride] ?
[A] b1

[Q] What do you get for CCc1cc(-c2ccc(S(=O)(=O)N(C)Cc3ccco3)s2)c(C)[nH]c1=O ?
[A] b1

[Q] What do you get for CCc1cc(-c2ccc(S(=O)(=O)N3CCC(N4CCCCC4)CC3)o2)c(C)[nH]c1=O [Example 51, hydrochloride] ?
[A] b0

[Q] What do you get for CCc1cc(-c2ccc(CN3CCC(O)(c4ccccc4)CC3)s2)c(C)[nH]c1=O [Example 185, hydrochloride] ?
[A] b2

[Q] What do you get for CCc1cc(-c2ccc(S(=O)(=O)NC3CCN(Cc4ccc(Cl)cc4)CC3)s2)c(C)[nH]c1=O [Example 76, hydrochloride] ?
[A] b0

[Q] What do you get for CCc1cc(-c2nnco2)c(C)[nH]c1=O ?
[A] b1

[Q] What do you get for CCc1cc(-c2ccc(S(=O)(=O)NC3CCN(Cc4ccccc4)CC3)s2)c(C)[nH]c1=O [Example 39, hydrochloride] ?
[A] b0

[Q] What do you get for CCc1cc(-c2ccc(S(=O)(=O)NCCN3CCCCC3)o2)c(C)[nH]c1=O [Example 50, hydrochloride] ?
[A] b0

[Q] What do you get for CCc1cc(-c2ccc(S(=O)(=O)NCCc3cccnc3)s2)c(C)[nH]c1=O [Example 107, hydrochloride] ?
[A] b0

[Q] What do you get for CCc1cc(-c2ccc(S(=O)(=O)NCc3ccco3)s2)c(C)[nH]c1=O ?
[A] b0

[Q] What do you get for CCc1cc(-c2ccc(S(=O)(=O)N3CCC(n4ccnc4)CC3)s2)c(C)[nH]c1=O [Example 79, hydrochloride] ?
[A] b1

[Q] What do you get for CCc1cc(-c2ccc(CNc3cc(C(=O)OC)n(C)c3)s2)c(C)[nH]c1=O [Example 130, dihydrochloride] ?
[A] b2

[Q] What do you get for CCc1cc(-c2ccc(CNCCCn3ccnc3)s2)c(C)[nH]c1=O [Example 153, dihydrochloride] ?
[A] b2

[Q] What do you get for CCc1cc(-c2nc[nH]n2)c(C)[nH]c1=O ?
[A] b1

[Q] What do you get for CCc1cc(-c2ccc(CNCCc3ccccn3)s2)c(C)[nH]c1=O [Example 141, dihydrochloride] ?
[A] b1

[Q] What do you get for CCc1cc(-c2ccc(CN3CCC(O)CC3)s2)c(C)[nH]c1=O [Example 127, hydrochloride] ?
[A] b2

[Q] What do you get for CCc1cc(-c2ccc(S(=O)(=O)NC3CCN(CC4CC4)CC3)s2)c(C)[nH]c1=O [Example 74, hydrochloride] ?
[A] b1

[Q] What do you get for CCc1cc(-c2ccc(S(=O)(=O)N(C)CC(O)c3ccccc3)s2)c(C)[nH]c1=O (stereo not shown) ?
[A] b2

[Q] What do you get for CCc1cc(-c2ccc(CNCc3ccccn3)s2)c(C)[nH]c1=O [Example 195, hydrochloride] ?
[A] b2

[Q] What do you get for CCc1cc(-c2ccc(S(=O)(=O)NCc3ccc(C(F)(F)F)cc3)s2)c(C)[nH]c1=O ?
[A] b0

[Q] What do you get for CCc1cc(-c2ccc(CNC3CCN(Cc4ccccc4)C3)s2)c(C)[nH]c1=O (stereo not shown) [Example 159, dihydrochloride] ?
[A] b2

[Q] What do you get for CCc1cc(-c2ccc(CN3CCC(N4CCCC4)CC3)s2)c(C)[nH]c1=O [Example 160, dihydrochloride] ?
[A] b2

[Q] What do you get for CCc1cc(-c2ccc(S(=O)(=O)N(C)C)s2)c(C)[nH]c1=O ?
[A] b2
